experiment: Stability as a drug substance, 2-week storage, HPLC assay of mainly degradation product (Test Example 1, Stage 1); assay type: physicochemical; details: 2-week storage at 25° C./75% RT (closed system), increase in HPLC area % of mainly degradation product
Outcome Measure: STABILITY AS DRUG SUBSTANCE

* CCc1cc(OC)cc2nc(-c3cccnc3N3CC[C@H](N(C)C)C3)oc(=O)c12.Cl.O [MONOHYDROCHLORIDE] | ∘
* CCc1cc(OC)cc2nc(-c3cccnc3N3CC[C@H](N(C)C)C3)oc(=O)c12 [¾L-TARTARIC ACID] | ∘
* CCc1cc(OC)cc2nc(-c3cccnc3N3CC[C@H](N(C)C)C3)oc(=O)c12 [FREE FORM] | ∘
